Target: Protein translocase subunit SecA (Escherichia coli (strain K12))
Assay: Assay to Identify E. coli SecA ATPase Inhibitors
Type: functional
Parameters: scale not given: direction of the effect not stated beside the values
Details: 30 µM
Measured potencies and affinities stand elsewhere.
observable: Percent Effect (%)
Numbers only here, please. The scale is %.

- compound: "CC(NC(=O)N1CCC(OCc2ccccc2)CC1)c1nncn1C (stereo not given)"
  Percent Effect [%]: -3.83
- compound: "Cn1ncc(C(=O)N2CCCC(n3cccn3)C2)c1C1CC1 (stereo not given)"
  Percent Effect [%]: -4.48
- compound: "CCc1nc2n(n1)CC(NCC(=O)Nc1ccc(Cl)cn1)CC2 (stereo not given)"
  Percent Effect [%]: -0.524

Entry under review: Cc1ccc(CNC2CCN(CCc3ccncc3)CC2)cc1C . Reported Percent Effect?
-4.25

Entry under review: O=C(C1=CCCC1)N1CCC[C@]2(C[C@@H](OCc3ccncc3)CO2)C1 . Reported Percent Effect?
1.57

====

Molecular target: Arginase-2, mitochondrial (Homo sapiens) (UniProt P78540)
Sequence (whole entry): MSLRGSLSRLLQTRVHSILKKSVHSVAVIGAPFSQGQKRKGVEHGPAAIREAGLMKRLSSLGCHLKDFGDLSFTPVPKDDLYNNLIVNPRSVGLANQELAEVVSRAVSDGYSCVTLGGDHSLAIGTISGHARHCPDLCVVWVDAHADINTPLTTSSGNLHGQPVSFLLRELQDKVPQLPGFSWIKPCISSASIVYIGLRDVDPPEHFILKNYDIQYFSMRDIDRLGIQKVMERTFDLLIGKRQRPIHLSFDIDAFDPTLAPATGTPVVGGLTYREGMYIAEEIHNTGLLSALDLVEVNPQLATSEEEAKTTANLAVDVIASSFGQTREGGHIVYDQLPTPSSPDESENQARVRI
Test: in vitro enzyme assay to detect the production of urea directly proportional to the activity of Arginase II; also: in the data most compounds retested in dose-response had high values
Assay type: functional
Parameters: scale not given: direction of the effect not stated beside the values
Settings: 33.3 µM
observable: Percent Effect (%)
Numbers only here, please. The scale is %.

- compound: "Cc1nn(C)cc1CN(C)Cc1cc2c(cc1OC(F)F)OCO2"
  Percent Effect [%]: -0.744
- compound: "Cc1nc(-c2ccc(C(=O)O)cc2)cc(C2CCN(C(C)C)C2)n1 (centres undefined)"
  Percent Effect [%]: 4.87
- compound: "COCCNC(=O)c1cc(S(=O)(=O)N2CCCCC2)cs1"
  Percent Effect [%]: 1.05
- compound: "Cc1ccc(CNC(=O)NCCCn2nc3ccccn3c2=O)s1"
  Percent Effect [%]: -18.8
- compound: "Cc1cc(C(=O)N2CCCCC2C)ccc1NCCCO (centres undefined)"
  Percent Effect [%]: 0.712
- compound: "CCC(C)N(C)S(=O)(=O)c1ccc(CCNC(C)=O)s1 (centres undefined)"
  Percent Effect [%]: 0.442

Entry under review: CC(C)NC(=O)[C@H]1C[C@@H]2[C@@H](C1)OCCN2Cc1cnn(C)c1 . Reported Percent Effect?
-50

Entry under review: CCS(=O)(=O)NC(C(=O)NC)c1ccc(F)c(F)c1 (centres undefined) . Reported Percent Effect?
2.92

Entry under review: O=C(c1ccc(O)cc1)N1CCN(C(=O)c2ccc3c(c2)COC3)CC1 . Reported Percent Effect?
-2.66

Entry under review: CN(Cc1ccc2c(c1)OCCO2)C(=O)Cn1ccccc1=O . Reported Percent Effect?
5.76

Entry under review: CCCc1n[nH]c(C2CN(CCn3cccn3)CCO2)n1 (centres undefined) . Reported Percent Effect?
2.21

Entry under review: O=C(c1cnc(-c2ccco2)s1)N1CCCC1Cn1cccn1 (centres undefined) . Reported Percent Effect?
1.5

Entry under review: O=C(NCC1CC1)C1CCC2(CCN(C(=O)c3ccccn3)CC2)O1 (centres undefined) . Reported Percent Effect?
2.74

Entry under review: Cc1cnn(CC2CCCN2CCc2nc3ccccc3c(=O)[nH]2)c1 (centres undefined) . Reported Percent Effect?
4.56

====

Biological target: Ubiquitin-activating enzyme e1, putative (Leishmania donovani (strain BPK282A1)) (UniProt E9BSI1)
Sequence (E9BSI1 as listed by the source): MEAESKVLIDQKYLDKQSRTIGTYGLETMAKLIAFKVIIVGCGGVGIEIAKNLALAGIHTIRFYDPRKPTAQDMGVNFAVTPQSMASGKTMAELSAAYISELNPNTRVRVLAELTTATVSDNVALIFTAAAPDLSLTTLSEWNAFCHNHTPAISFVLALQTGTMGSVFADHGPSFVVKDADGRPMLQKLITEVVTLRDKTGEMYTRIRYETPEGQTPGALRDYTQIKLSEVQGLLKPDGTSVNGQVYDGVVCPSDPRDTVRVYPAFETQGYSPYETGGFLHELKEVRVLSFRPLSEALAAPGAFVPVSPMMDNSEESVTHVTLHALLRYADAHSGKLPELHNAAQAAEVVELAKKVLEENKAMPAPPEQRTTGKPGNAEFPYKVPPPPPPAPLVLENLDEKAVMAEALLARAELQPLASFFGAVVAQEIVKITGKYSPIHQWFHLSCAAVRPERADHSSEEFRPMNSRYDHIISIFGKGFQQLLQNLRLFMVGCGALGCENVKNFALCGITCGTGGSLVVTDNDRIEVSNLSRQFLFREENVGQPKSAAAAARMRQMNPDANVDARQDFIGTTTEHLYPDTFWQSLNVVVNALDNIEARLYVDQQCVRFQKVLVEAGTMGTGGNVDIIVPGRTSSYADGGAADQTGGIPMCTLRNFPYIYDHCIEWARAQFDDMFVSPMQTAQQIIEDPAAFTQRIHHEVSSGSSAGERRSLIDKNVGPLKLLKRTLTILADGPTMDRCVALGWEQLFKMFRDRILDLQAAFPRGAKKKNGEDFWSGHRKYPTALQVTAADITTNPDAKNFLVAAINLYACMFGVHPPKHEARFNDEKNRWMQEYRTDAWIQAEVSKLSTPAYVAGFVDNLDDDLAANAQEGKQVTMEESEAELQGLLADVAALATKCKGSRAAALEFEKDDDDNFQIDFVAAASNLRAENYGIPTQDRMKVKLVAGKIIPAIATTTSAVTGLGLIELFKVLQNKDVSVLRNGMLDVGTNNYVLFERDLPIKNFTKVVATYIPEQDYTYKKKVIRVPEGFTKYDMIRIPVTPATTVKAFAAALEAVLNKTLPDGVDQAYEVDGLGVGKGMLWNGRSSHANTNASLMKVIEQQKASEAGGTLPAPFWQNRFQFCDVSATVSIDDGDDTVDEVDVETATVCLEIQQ
Test: Leishmania donovani Ubiquitin Activating Enzyme (LdE1)
Type: functional
Set-up: scale not given: direction of the effect not stated beside the values
Details: 30 µM
Measured potencies and affinities stand elsewhere.
observable: Percent Effect (%)
Numbers only here, please. The scale is %.

Worked examples, 2 compounds total:
- compound: "CC(NC(=O)NCC1(c2ccccc2)CCC1)c1nncn1C (stereo not drawn)"
  unitSpec: "%"
  dataValue: 13.2
- compound: "Cc1c[nH]c(CN(C)C(=O)c2cccc(CCC(C)(C)O)c2)n1"
  unitSpec: "%"
  dataValue: 8

Entry under review: Cn1cccc1C(=O)NCc1cnc2n1CCN(C(=O)N1CCCC1)C2 . Reported Percent Effect?
16

====

Target: Ubiquitin-activating enzyme e1, putative (Leishmania donovani (strain BPK282A1)) (UniProt E9BSI1)
Assay: Leishmania donovani Ubiquitin Activating Enzyme (LdE1)
Assay type: functional
Parameters: scale not given: direction of the effect not stated beside the values
Conditions: 30 µM
Results with a measured potency or affinity are listed apart.
observable: Percent Effect (%)
Numbers only here, please. The scale is %.

Worked examples, 3 molecules total:
- molecule: "CNc1cc(N2CCCC2CNCc2ccc(Cl)o2)ncn1 (centres undefined)"
  unitSpec: "%"
  Percent Effect: 13.5
- molecule: "O=C(CCCNC(=O)C1CC1)Nc1cnn(-c2ccccc2Cl)c1"
  unitSpec: "%"
  Percent Effect: 5.41
- molecule: "Cc1nc(C)c(C(=O)NCCNc2ncccc2C#N)s1"
  unitSpec: "%"
  Percent Effect: 31.2

Entry under review: Cn1cnc2c1C(COCC1CCOCC1)CN(C(=O)c1ccoc1)C2 (centres undefined) . Reported Percent Effect?
18.7

Entry under review: CCc1nccn1C1CCCN(C(=O)c2csc(NC(C)=O)n2)C1 (centres undefined) . Reported Percent Effect?
15.6

Entry under review: COC(=O)c1ccc(S(=O)(=O)NCc2cccnc2N(C)C)cc1 . Reported Percent Effect?
17.7

Entry under review: CN1CCOC(CNC(=O)CCCOc2ccccc2F)C1 (centres undefined) . Reported Percent Effect?
12.8

Entry under review: Cc1cn2c(n1)CCC(NC(=O)c1c[nH]c(C)n1)C2 (centres undefined) . Reported Percent Effect?
-10.7

Entry under review: CCCN(CCO)C(=O)C1CCC(=O)N(CCc2ccc(Cl)cc2)C1 (centres undefined) . Reported Percent Effect?
6.94

Entry under review: Cc1ncc2c(n1)CN(Cc1nnc(Cc3ccccc3)o1)CC2 . Reported Percent Effect?
24.3

Entry under review: CNC(=O)c1ccc(C(=O)N2CCCC2c2cnn(C)c2)cn1 (centres undefined) . Reported Percent Effect?
7.89

Entry under review: CC(=O)c1ccccc1C(=O)NCC1(CO)CC1 . Reported Percent Effect?
10.8

====

Target: Protein translocase subunit SecA (Escherichia coli (strain K12))
Experiment: Assay to Identify E. coli SecA ATPase Inhibitors
Format: functional
Design: scale not given: direction of the effect not stated beside the values
Conditions: 30 µM
Potency and affinity values are given separately.
observable: Percent Effect (%)
Numbers only here, please. The scale is %.

- molecule: "O=C1CC[C@H]2[C@H](CCN2C(=O)C2CCCO2)N1Cc1ccncc1 (some centres undefined)"
  targetDesc: "Protein translocase subunit SecA (Escherichia coli (strain K12))"
  Percent Effect / %: -2.88
- molecule: "CN(C)CCN1CCC2(CC1)CN(c1cccnc1)C(=O)CO2"
  targetDesc: "Protein translocase subunit SecA (Escherichia coli (strain K12))"
  Percent Effect / %: -2.58
- molecule: "COc1ccc(C)cc1C(C)NC(=O)NCCCn1cncn1 (centres undefined)"
  targetDesc: "Protein translocase subunit SecA (Escherichia coli (strain K12))"
  Percent Effect / %: -2.2
- molecule: "CCn1ncc(Br)c1CN(C)S(=O)(=O)c1ccc(C)cc1"
  targetDesc: "Protein translocase subunit SecA (Escherichia coli (strain K12))"
  Percent Effect / %: 0.567
- molecule: "CC(C)C(=O)N1CCN(Cc2cc(-c3ccncc3)nn2C)CC1"
  targetDesc: "Protein translocase subunit SecA (Escherichia coli (strain K12))"
  Percent Effect / %: -5.03
- molecule: "Cc1ccc2cc(CNCCCN3CCOCC3)c(=O)[nH]c2c1"
  targetDesc: "Protein translocase subunit SecA (Escherichia coli (strain K12))"
  Percent Effect / %: -3.73
- molecule: "CCN(Cc1ccc2c(c1)OCCO2)C(=O)NC(C)Cn1ccnc1 (centres undefined)"
  targetDesc: "Protein translocase subunit SecA (Escherichia coli (strain K12))"
  Percent Effect / %: -0.244
- molecule: "CC1CCCCN1Cc1ccc(-c2ccccc2C(=O)O)cc1 (centres undefined)"
  targetDesc: "Protein translocase subunit SecA (Escherichia coli (strain K12))"
  Percent Effect / %: -1.02

# query: Percent Effect | item Cc1nc(-c2nnc[nH]2)sc1C(=O)N(Cc1cccnc1)C1CC1 | system: Protein translocase subunit SecA (Escherichia coli (strain K12))
-4.44

Reference for the values: ChEMBL document CHEMBL3988442
